# credit: PubChem BioAssay (NCI)

protocol_notes: NCI Yeast Anticancer Drug Screen. Data for the mgt1 strain (AID 153)
assay_conditions: S. cerevisiae mgt1 mutant growth inhibition; at 100.0 µM; hits give high values
About 79,000 compounds went through this panel and 15% of them were active in at least one assay; those are over-represented in the sample as a whole.
endpoint: growth inhibition (%)

- CCn1c(O)c(C=Nc2ccccc2)s/c1=N/Nc1nc(-c2ccccc2)cs1: 24
- NCCNCCNc1ccc(NCCNCCN)c2c1C(=O)c1c(O)ccc(O)c1C2=O: 19
- COc1ccc(N=CN(C)C)c(C)c1: 95
- CC[N+]1(C)CCC(O)(c2ccc(OC)cc2)C(C(=O)c2ccc(OC)cc2)C1 (stereo unspecified): -44
- COc1cc(O)c2c(c1O)C(=O)c1cc(C)ncc1C2=O: 60
- CN1CCN(C(=O)/C=C/C(=O)c2ccccc2)CC1: 95
